molecular target: Neuronal acetylcholine receptor subunit alpha-7 (Rattus norvegicus, UniProt Q05941); experiment: Activation responses to that evoked by ACh at human Nicotinic acetylcholine receptor alpha-7 expressed in xenopus oocytes
Sequence (Q05941 whole entry): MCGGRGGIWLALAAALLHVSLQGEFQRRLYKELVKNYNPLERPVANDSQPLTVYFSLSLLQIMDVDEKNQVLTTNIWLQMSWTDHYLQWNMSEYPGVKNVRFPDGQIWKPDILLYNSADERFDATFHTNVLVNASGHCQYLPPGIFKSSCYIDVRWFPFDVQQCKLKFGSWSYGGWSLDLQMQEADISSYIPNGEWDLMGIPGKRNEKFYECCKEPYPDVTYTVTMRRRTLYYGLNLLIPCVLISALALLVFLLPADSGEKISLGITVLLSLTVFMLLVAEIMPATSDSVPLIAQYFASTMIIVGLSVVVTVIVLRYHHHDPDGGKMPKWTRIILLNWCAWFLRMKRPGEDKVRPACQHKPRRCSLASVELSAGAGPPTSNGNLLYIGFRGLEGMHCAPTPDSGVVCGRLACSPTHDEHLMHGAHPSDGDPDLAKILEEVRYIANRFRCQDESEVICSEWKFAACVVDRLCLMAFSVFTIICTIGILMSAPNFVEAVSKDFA
Endpoint name: EC50

Data request: Reported EC50, compound O=C1NC[C@@]2(CN3CCC2CC3)O1 : ____
Data returned: 380 nM

----------
molecular target: Neuronal acetylcholine receptor subunit alpha-7 (Rattus norvegicus, UniProt Q05941); test: Inhibition of the response to ACh when coapplied with Nicotinic acetylcholine receptor alpha7
Endpoint name: pIC50
Expect pIC50 as a plain number equal to -log10 of the molar concentration.

Data request: Reported pIC50, compound Cc1nccn1CC1CCc2c(c3ccccc3n2C)C1=O (stereo unspecified) : ____
Data returned: 4.60

Taken from ChEMBL document CHEMBL1147510.
